Biological target: Type III PDE isolated from human platelets (Homo sapiens)
Construct: Fractions containing PDE III activity are pooled and dialyzed overnight; from tissue; host or cells: human platelets (100,000 x g supernatant, DEAE-Trisacryl M fraction)
Sequence (Q14432 whole entry): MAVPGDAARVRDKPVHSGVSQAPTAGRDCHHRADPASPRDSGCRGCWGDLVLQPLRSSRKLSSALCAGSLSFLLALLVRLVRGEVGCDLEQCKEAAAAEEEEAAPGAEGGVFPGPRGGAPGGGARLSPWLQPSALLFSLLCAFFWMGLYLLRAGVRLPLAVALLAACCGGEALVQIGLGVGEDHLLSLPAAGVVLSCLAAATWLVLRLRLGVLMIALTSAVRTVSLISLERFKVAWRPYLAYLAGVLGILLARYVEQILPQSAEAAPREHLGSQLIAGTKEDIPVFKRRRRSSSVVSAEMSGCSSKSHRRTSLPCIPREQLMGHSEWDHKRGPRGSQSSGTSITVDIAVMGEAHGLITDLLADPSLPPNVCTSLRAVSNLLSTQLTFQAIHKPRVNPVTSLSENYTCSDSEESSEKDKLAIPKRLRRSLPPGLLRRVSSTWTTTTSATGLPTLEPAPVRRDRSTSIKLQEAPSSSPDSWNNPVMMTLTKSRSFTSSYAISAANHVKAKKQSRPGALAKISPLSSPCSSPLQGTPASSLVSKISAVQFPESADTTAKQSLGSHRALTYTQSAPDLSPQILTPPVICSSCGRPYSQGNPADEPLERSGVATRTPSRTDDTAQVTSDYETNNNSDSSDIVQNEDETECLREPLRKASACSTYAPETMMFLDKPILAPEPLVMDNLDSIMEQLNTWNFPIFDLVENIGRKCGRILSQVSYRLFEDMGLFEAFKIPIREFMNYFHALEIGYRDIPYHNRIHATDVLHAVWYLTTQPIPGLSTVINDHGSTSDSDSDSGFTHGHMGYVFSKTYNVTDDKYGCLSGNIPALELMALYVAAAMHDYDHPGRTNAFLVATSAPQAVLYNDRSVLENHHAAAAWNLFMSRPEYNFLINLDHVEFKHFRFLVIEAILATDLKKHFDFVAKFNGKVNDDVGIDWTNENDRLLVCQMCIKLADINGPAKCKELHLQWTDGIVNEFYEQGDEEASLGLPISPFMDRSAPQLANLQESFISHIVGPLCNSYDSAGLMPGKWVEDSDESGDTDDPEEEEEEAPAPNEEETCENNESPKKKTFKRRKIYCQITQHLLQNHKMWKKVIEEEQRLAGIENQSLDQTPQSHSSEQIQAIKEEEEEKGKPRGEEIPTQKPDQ
Assay: Type III PDE inhibition, hydrolysis of [3H]-cyclic AMP
Assay type: biochemical
Conditions: cyclic AMP 0.2 μM; 2.5% DMSO; read-out: PDE ACTIVITY IC50 PDE III
pIC50: −log10 of the molar value.
Short version: pIC50 at least 4 is class 1, less is class 0.

molecule: COc1ccc(Cn2c(=O)[nH]c(=S)c3[nH]c(C(C)C)nc32)cc1OC1CCCC1
class.label: class 1
//
molecule: CC(C)c1nc2c([nH]1)c(=S)[nH]c(=O)n2-c1cccc(Cl)c1
class.label: class 0
//
molecule: CCCNc1nc(=O)n(CC2CC2)c2nc(C(C)C)[nH]c12
class.label: class 0
//
molecule: COc1ccc(C2CNC(=O)C2)cc1OC1CCCC1 (stereo not drawn) [Rolipram, reference compound]
class.label: class 0
//
molecule: CCn1c(=O)[nH]c(=S)c2[nH]c(Cc3ccc(OC)c(OC4CCCC4)c3)nc21
class.label: class 1
//
molecule: O=c1[nH]c(=S)c2[nH]cnc2n1Cc1ccc(Cl)cc1
class.label: class 1
//
molecule: CC(C)c1nc2c([nH]1)c(=S)[nH]c(=O)n2Cc1ccc(Cl)cc1
class.label: class 1
//
molecule: CCCn1c(=O)[nH]c(=S)c2[nH]c(Cc3ccc4ccccc4c3)nc21
class.label: class 1

Next item in the queue.
# input Can CC(C)c1nc2c([nH]1)c(=S)[nH]c(=O)n2Cc1cccc(Cl)c1 be said to have pIC50 at or above 4?
# output class 1
